Tested on: Vero E6 infected with SARS-CoV-2
Experiment: inhibition of SARS-CoV-2 cytopathic effect; higher = more antiviral protection, active = above 15
Settings: 1 nM; 48 h
Recorded measurements of inhibition of SARS-CoV-2 cytopathic effect, one per entry
endpoint_name: inhibition of SARS-CoV-2 cytopathic effect (%)

{"smiles_input": "CN1C(=O)N(c2cc(Cl)cc(Cl)c2)C(=O)[C@@]1(C)Cc1ccc(Br)cc1", "reported_result": -0.07}
{"smiles_input": "CNCc1ccc(-c2[nH]c3cc(F)cc4c3c2CCNC4=O)cc1", "reported_result": 1.82}
{"smiles_input": "CCCn1c(=O)c2[nH]cnc2n(-c2ccc(Cl)cc2)c1=O", "reported_result": -3.55}
{"smiles_input": "CC1(C)S[C@@H]2[C@H](N3C(=O)[C@@H](c4ccccc4)NC3(C)C)C(=O)N2[C@H]1C(=O)O", "reported_result": -0.32}
{"smiles_input": "Cc1cnc(C(=O)N[C@H]2CCCCC/C=C\\[C@@H]3C[C@@]3(C(=O)NS(=O)(=O)C3CC3)NC(=O)[C@@H]3C[C@@H](Oc4nc5ccccc5c5ccccc45)CN3C2=O)cn1", "reported_result": -1.75}
{"smiles_input": "CC(C)C[C@H](NC(=O)[C@H](CCc1ccccc1)NC(=O)CN1CCOCC1)C(=O)N[C@@H](Cc1ccccc1)C(=O)N[C@@H](CC(C)C)C(=O)[C@@]1(C)CO1", "reported_result": -1.68}
{"smiles_input": "O=C1NC(=O)/C(=C/c2ccc3c(c2)OC(F)(F)O3)S1", "reported_result": 2.29}

---

Test system: Vero E6 infected with SARS-CoV-2
Test: inhibition of SARS-CoV-2 cytopathic effect; higher = more antiviral protection, active = above 15
Settings: 833.33 nM; 48 h
endpoint_name: inhibition of SARS-CoV-2 cytopathic effect (%)

{"compound": "CC[C@@]1(O)C(=O)OCc2c1cc1n(c2=O)Cc2c-1nc1cc(F)c(C)c3c1c2[C@@H](N)CC3 [exatecan-mesylate]", "unit_annotation": "%", "reported_result": -15.8}
{"compound": "C[n+]1cccc(C(=O)[O-])c1 [trigonelline]", "unit_annotation": "%", "reported_result": 1.44}
{"compound": "COC1=CC(=O)C[C@@H](C)[C@]12Oc1c(Cl)c(OC)cc(OC)c1C2=O [griseofulvin]", "unit_annotation": "%", "reported_result": 2.52}
{"compound": "O=C(O)C1=CCCNC1 [guvacine]", "unit_annotation": "%", "reported_result": 6.87}
{"compound": "CCCN(C/C=C/I)[C@H]1CCc2ccc(O)cc2C1 [7-hydroxy-PIPAT]", "unit_annotation": "%", "reported_result": -0.19}

---

Tested on: Vero E6 infected with SARS-CoV-2
Assay: SARS-CoV-2 infection rate relative to infected DMSO; higher = more infection, active = 60 or less
Details: 24 h

{"molecule": "C1=C2CCCN[C@H]2[C@@H]2C[C@H]1[C@H]1CCCCN1C2 [aloperine] (10 µM)", "SARS-CoV-2 infection rate, %": 102}
{"molecule": "O=C/C=C/c1ccccc1 [cinnamaldehyde] (10 µM)", "SARS-CoV-2 infection rate, %": 104}
{"molecule": "COC(=O)CCC(=O)CN [methyl-aminolevulinate] (10 µM)", "SARS-CoV-2 infection rate, %": 90}
{"molecule": "OC1(c2ccc(Cl)c(C(F)(F)F)c2)CCN(CCCC(c2ccc(F)cc2)c2ccc(F)cc2)CC1 [penfluridol] (0.833333 µM)", "SARS-CoV-2 infection rate, %": 79}
{"molecule": "O=P(O)(O)CN(CCN(CP(=O)(O)O)CP(=O)(O)O)CP(=O)(O)O (10 µM)", "SARS-CoV-2 infection rate, %": 104}
{"molecule": "CCCCCCCCCCCCCC(=O)OC(C)C [isopropyl-myristate] (10 µM)", "SARS-CoV-2 infection rate, %": 95.5}
{"molecule": "CC(C)CCNC(=O)[C@H](CC(C)C)NC(=O)[C@H]1O[C@@H]1C(=O)O [loxistatin-acid] (10 µM)", "SARS-CoV-2 infection rate, %": 88}
{"molecule": "CN1CC(O)C2=C/C(=N/NC(N)=O)C(=O)C=C21 (centres undefined) [carbazochrome] (10 µM)", "SARS-CoV-2 infection rate, %": 113}
{"molecule": "O=C(c1ccc(Cl)o1)N1CC2CNCC2C1 (centres undefined) (10 µM)", "SARS-CoV-2 infection rate, %": 105}

---

System: Vero E6 infected with SARS-CoV-2
Test: inhibition of SARS-CoV-2 cytopathic effect; higher = more antiviral protection, active = above 15
Settings: 100 nM; 48 h
Recorded measurements of inhibition of SARS-CoV-2 cytopathic effect, one per entry
endpoint_name: inhibition of SARS-CoV-2 cytopathic effect (%)

{"compound": "CC(C)(C)Cn1c(N)nc2ccc(-c3[nH]c(C(C)(C)C)nc3-c3ccc(F)cc3)nc21", "reported_result": -1.43}
{"compound": "CC(=O)NS(=O)(=O)c1ccc(N)cc1 [sulfacetamide]", "reported_result": 1.95}
{"compound": "Nc1nccc(-c2c(-c3ccc(F)cc3)ncn2C2CCCCC2)n1", "reported_result": -2.24}
{"compound": "C=CCC1(CC(C)C)C(=O)NC(=O)NC1=O", "reported_result": 2.7}
{"compound": "CCC(=O)N1CCOc2c(cc(-c3ccc(OC)c(OC)c3)cc2OC[C@H]2CCCN(C)C2)C1", "reported_result": 0.95}
{"compound": "O=C(N[C@@H](Cc1c[nH]c2ccccc12)C(=O)O)c1ccc(Cl)cc1", "reported_result": 2.83}
{"compound": "C=CCN1C[C@H](C)N([C@H](c2ccc(C(=O)N(CC)CC)cc2)c2cccc(OC)c2)C[C@H]1C", "reported_result": 1.71}
{"compound": "NC[C@H]1O[C@H](O[C@H]2[C@H](O)[C@@H](O[C@H]3O[C@H](CO)[C@@H](O)[C@H](N)[C@H]3O)[C@H](N)C[C@@H]2N)[C@H](O)[C@@H](O)[C@@H]1O", "reported_result": 2.41}

---

System: Vero E6 infected with SARS-CoV-2
Experiment: inhibition of SARS-CoV-2 cytopathic effect; higher = more antiviral protection, active = above 15
Details: 10000 nM; 48 h
endpoint_name: inhibition of SARS-CoV-2 cytopathic effect (%)

{"molecule": "CC[C@H](C)C(=O)O[C@H]1C[C@H](O)C=C2C=C[C@H](C)[C@H](CC[C@@H](O)C[C@@H](O)CC(=O)O)[C@H]21", "unit_annotation": "%", "reported_result": 1.69}
{"molecule": "CN1C(CCl)Nc2cc(Cl)c(S(N)(=O)=O)cc2S1(=O)=O (centres undefined) [methyclothiazide]", "unit_annotation": "%", "reported_result": 2.28}
{"molecule": "COc1ccc2c(c1OC)C(=O)O[C@@H]2[C@H]1c2c(cc3c(c2OC)OCO3)CCN1C", "unit_annotation": "%", "reported_result": -2.79}
{"molecule": "O=C(O)CC1CC(c2ccccc2)=NO1 (centres undefined)", "unit_annotation": "%", "reported_result": 0.36}
{"molecule": "N=C(N)NCc1cccc(I)c1", "unit_annotation": "%", "reported_result": 6.21}
{"molecule": "c1cc(OCCN2CCCCC2)cc(-c2n[nH]c3ccc(-c4nnc[nH]4)cc23)c1", "unit_annotation": "%", "reported_result": 3.74}
{"molecule": "O=C(O)CCCCC(=O)O", "unit_annotation": "%", "reported_result": -1.83}
{"molecule": "NS(=O)(=O)c1nn2cc(-c3ccccc3)nc2s1", "unit_annotation": "%", "reported_result": 0.7}
{"molecule": "CC(C)CC(=O)N[C@H](C(=O)N[C@H](C(=O)N[C@@H](CC(C)C)[C@@H](O)CC(=O)N[C@@H](C)C(=O)N[C@@H](CC(C)C)[C@@H](O)CC(=O)O)C(C)C)C(C)C", "unit_annotation": "%", "reported_result": -4.53}

---

Tested on: Vero E6 infected with SARS-CoV-2
Experiment: inhibition of SARS-CoV-2 cytopathic effect; higher = more antiviral protection, active = above 15
Conditions: 1 nM; 48 h
endpoint_name: inhibition of SARS-CoV-2 cytopathic effect (%)

{"compound": "CNC(=S)C1(c2ccccn2)CCCS1 (stereo unspecified) [picartamide]", "unit_annotation": "%", "reported_result": -4.38}
{"compound": "Nc1ccc(C(=O)O)c(O)c1 [aminosalicylate]", "unit_annotation": "%", "reported_result": -3.85}
{"compound": "CCS(=O)(=O)N(C)[C@H]1c2cc(C#N)ccc2OC(C)(C)[C@@H]1O [chromanol-293B-(-)-[3R,4S]]", "unit_annotation": "%", "reported_result": 0.15}
{"compound": "CC(=O)[C@H]1CC[C@H]2[C@@H]3CCC4=CC(=O)CC[C@]4(C)[C@H]3CC[C@]12C [progesterone]", "unit_annotation": "%", "reported_result": -0.08}
{"compound": "c1ccc2c(c1)sc1ccccc12 [dibenzothiophene]", "unit_annotation": "%", "reported_result": -0.91}
{"compound": "CCOc1ccccc1C(N)=O [ethenzamide]", "unit_annotation": "%", "reported_result": 5.35}
{"compound": "Cc1ccccc1NC(=N)Nc1ccccc1C [ditolylguanidine]", "unit_annotation": "%", "reported_result": 1.39}
{"compound": "O=C(O)c1cccnc1 [niacin]", "unit_annotation": "%", "reported_result": 1.07}
{"compound": "Nc1nnc(Sc2ncc([N+](=O)[O-])s2)s1", "unit_annotation": "%", "reported_result": 3.57}
{"compound": "COc1ccc(-n2[nH]c3c4c(ncc3c2=O)CCCCC4)cc1", "unit_annotation": "%", "reported_result": 0.69}
{"compound": "N#CCNC(=O)c1ccc(-c2ccnc(Nc3ccc(N4CCOCC4)cc3)n2)cc1", "unit_annotation": "%", "reported_result": -0.49}
{"compound": "CC(C)NC(=O)COc1cccc(-c2nc(Nc3ccc4[nH]ncc4c3)c3ccccc3n2)c1", "unit_annotation": "%", "reported_result": -1.49}
{"compound": "C[C@H](O)[C@H](O)[C@H]1CNc2nc(N)[nH]c(=O)c2N1 [sapropterin]", "unit_annotation": "%", "reported_result": -2.03}
{"compound": "CCC[C@@H](NC(=O)N1C(=O)C(CC)(CC)[C@@H]1Oc1ccc(C(=O)N2CCN(C)CC2)cc1)c1ccc2c(c1)OCO2", "unit_annotation": "%", "reported_result": 1.03}
{"compound": "CC1COc2c(N3CCN(C)CC3)c(F)cc3c(=O)c(C(=O)O)cn1c23 (stereo unspecified) [ofloxacin]", "unit_annotation": "%", "reported_result": 1.97}
{"compound": "Fc1ccc(C(OCCN2CCN(C/C=C/c3ccccc3)CC2)c2ccc(F)cc2)cc1", "unit_annotation": "%", "reported_result": 1.02}
{"compound": "CC(=O)Nc1ccccc1 [acetanilide]", "unit_annotation": "%", "reported_result": -1.3}
{"compound": "c1ccc(NCc2ccc(CNc3ccccn3)cc2)nc1", "unit_annotation": "%", "reported_result": 0.1}
{"compound": "CC(=O)N[C@H]1[C@@H](O)[C@H](O)[C@@H](CO)O[C@@H]1O [N-acetylmannosamine]", "unit_annotation": "%", "reported_result": 0.48}
{"compound": "COc1cc2c(cc1OC)[C@@H]1Cc3ccc(OC)c(OC)c3CN1CC2 [rotundine]", "unit_annotation": "%", "reported_result": -0.42}
{"compound": "COc1ccc2cc3[n+](cc2c1OC)CCc1cc2c(cc1-3)OCO2 [berberine]", "unit_annotation": "%", "reported_result": -11.8}
